The measurements presented in this section are drawn from the supplement of paper PMC6555819.

- Tested on: LXRa homodimer (NR concentration 270 nM)
- Assay remarks: PBM binding z-score (relative to random genomic background probes); higher = stronger binding; sequences stand for … in GC…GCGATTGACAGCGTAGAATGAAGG

- Biopolymer sequence: "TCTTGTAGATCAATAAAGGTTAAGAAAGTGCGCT"
  Study system: "LXRa homodimer (NR concentration 270 nM)"
  PBM binding z-score: 0.774
- Biopolymer sequence: "CCTAGTTGGACAAGGTCACACACGCTATAGGTAC"
  Study system: "LXRa homodimer (NR concentration 270 nM)"
  PBM binding z-score: 1.48
- Biopolymer sequence: "TCGAGTAGGTTAGTCGGGGTATTCAGCCAACATA"
  Study system: "LXRa homodimer (NR concentration 270 nM)"
  PBM binding z-score: -0.315
- Biopolymer sequence: "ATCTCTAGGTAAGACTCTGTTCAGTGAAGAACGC"
  Study system: "LXRa homodimer (NR concentration 270 nM)"
  PBM binding z-score: 0.527
- Biopolymer sequence: "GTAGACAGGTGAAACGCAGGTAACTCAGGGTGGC"
  Study system: "LXRa homodimer (NR concentration 270 nM)"
  PBM binding z-score: -0.34
- Biopolymer sequence: "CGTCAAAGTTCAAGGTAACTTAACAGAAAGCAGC"
  Study system: "LXRa homodimer (NR concentration 270 nM)"
  PBM binding z-score: 2.56
- Biopolymer sequence: "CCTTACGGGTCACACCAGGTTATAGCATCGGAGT"
  Study system: "LXRa homodimer (NR concentration 270 nM)"
  PBM binding z-score: 1.01
- Biopolymer sequence: "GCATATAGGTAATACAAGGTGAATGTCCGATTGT"
  Study system: "LXRa homodimer (NR concentration 270 nM)"
  PBM binding z-score: 0.343
- Biopolymer sequence: "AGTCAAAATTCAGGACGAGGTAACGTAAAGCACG"
  Study system: "LXRa homodimer (NR concentration 270 nM)"
  PBM binding z-score: 0.224
- Biopolymer sequence: "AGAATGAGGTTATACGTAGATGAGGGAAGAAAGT"
  Study system: "LXRa homodimer (NR concentration 270 nM)"
  PBM binding z-score: 0.0433
- Biopolymer sequence: "CACACTAGGTCACCGGAAGGTCAAAGTCCGCATG"
  Study system: "LXRa homodimer (NR concentration 270 nM)"
  PBM binding z-score: 6.43
- Biopolymer sequence: "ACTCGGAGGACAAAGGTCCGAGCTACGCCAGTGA"
  Study system: "LXRa homodimer (NR concentration 270 nM)"
  PBM binding z-score: -0.328
